Target: Factor X (FX), P00742
Sequence (P00742 whole entry, looked up): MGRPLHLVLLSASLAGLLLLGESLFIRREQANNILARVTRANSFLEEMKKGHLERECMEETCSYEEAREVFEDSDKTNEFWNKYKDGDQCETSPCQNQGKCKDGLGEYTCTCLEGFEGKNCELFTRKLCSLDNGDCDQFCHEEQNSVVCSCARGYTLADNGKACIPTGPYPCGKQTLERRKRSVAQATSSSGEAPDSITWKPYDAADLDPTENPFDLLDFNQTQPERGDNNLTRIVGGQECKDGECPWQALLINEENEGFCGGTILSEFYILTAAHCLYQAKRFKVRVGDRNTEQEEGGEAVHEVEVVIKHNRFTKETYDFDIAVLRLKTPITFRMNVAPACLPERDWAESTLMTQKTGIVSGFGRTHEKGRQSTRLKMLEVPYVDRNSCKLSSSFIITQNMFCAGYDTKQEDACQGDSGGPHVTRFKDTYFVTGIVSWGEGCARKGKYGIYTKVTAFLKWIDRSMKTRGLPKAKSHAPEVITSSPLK
Please provide measured % of WT kcat/KM for the entries that follow.
Answers are plain numbers, in %.

PROTEIN	UNITS TEXT	ASSAY RESULT
FIXa variant D203N/F205T/R338E/R403E (protein) chain 1: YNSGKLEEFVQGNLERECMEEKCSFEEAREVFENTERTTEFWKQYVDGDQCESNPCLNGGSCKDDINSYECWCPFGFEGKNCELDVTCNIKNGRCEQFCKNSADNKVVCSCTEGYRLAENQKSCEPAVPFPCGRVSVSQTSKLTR chain 2: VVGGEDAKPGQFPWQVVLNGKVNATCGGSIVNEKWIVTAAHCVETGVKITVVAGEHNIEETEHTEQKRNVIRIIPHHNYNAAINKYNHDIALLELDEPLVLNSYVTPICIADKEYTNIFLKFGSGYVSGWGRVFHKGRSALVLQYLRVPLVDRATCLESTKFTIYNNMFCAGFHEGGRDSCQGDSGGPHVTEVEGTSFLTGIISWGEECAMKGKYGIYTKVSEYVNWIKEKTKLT	%	41
FIXa-D203N/F205T/R338E (protein) chain 1: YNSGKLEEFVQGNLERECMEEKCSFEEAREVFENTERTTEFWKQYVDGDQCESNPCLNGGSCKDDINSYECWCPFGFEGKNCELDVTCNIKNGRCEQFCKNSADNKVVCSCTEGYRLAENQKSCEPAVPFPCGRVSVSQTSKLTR chain 2: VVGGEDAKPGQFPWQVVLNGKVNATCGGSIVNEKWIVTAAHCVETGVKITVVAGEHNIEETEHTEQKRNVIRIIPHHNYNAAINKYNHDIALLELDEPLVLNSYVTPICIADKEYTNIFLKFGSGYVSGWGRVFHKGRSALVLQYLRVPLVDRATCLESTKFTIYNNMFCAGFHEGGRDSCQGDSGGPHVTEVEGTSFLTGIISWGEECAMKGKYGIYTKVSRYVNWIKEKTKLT	%	234

For the 2 proteins below, give their % of WT kcat/KM values.
1. FIXa-K247N/N249S/T343R/R403E/E410N (protein) chain 1: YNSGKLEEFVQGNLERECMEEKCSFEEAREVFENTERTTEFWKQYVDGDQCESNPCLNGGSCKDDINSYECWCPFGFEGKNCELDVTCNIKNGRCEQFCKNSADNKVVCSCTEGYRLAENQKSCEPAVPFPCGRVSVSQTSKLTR chain 2: VVGGEDAKPGQFPWQVVLNGKVDAFCGGSIVNEKWIVTAAHCVETGVKITVVAGEHNIEETEHTEQNRSVIRIIPHHNYNAAINKYNHDIALLELDEPLVLNSYVTPICIADKEYTNIFLKFGSGYVSGWGRVFHKGRSALVLQYLRVPLVDRATCLRSTKFRIYNNMFCAGFHEGGRDSCQGDSGGPHVTEVEGTSFLTGIISWGEECAMKGKYGIYTKVSEYVNWIKNKTKLT
2. FIXa variant K293E/R338E/R403E (protein) chain 1: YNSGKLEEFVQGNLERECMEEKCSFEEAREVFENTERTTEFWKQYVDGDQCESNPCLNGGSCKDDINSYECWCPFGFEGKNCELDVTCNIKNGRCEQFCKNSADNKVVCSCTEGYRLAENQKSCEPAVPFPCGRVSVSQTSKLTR chain 2: VVGGEDAKPGQFPWQVVLNGKVDAFCGGSIVNEKWIVTAAHCVETGVKITVVAGEHNIEETEHTEQKRNVIRIIPHHNYNAAINKYNHDIALLELDEPLVLNSYVTPICIADEEYTNIFLKFGSGYVSGWGRVFHKGRSALVLQYLRVPLVDRATCLESTKFTIYNNMFCAGFHEGGRDSCQGDSGGPHVTEVEGTSFLTGIISWGEECAMKGKYGIYTKVSEYVNWIKEKTKLT

285
36
